Measured values drawn from patent US20260209362A1 for this set.

Molecular target: T1, biotinylated recombinant human IL-12Rβ2 (produced in-house) (human, UniProt Q99665 24-622, random biotinylated)
T1 construct: also called hIL-12RB2; hIL12RB2
T1 sequence: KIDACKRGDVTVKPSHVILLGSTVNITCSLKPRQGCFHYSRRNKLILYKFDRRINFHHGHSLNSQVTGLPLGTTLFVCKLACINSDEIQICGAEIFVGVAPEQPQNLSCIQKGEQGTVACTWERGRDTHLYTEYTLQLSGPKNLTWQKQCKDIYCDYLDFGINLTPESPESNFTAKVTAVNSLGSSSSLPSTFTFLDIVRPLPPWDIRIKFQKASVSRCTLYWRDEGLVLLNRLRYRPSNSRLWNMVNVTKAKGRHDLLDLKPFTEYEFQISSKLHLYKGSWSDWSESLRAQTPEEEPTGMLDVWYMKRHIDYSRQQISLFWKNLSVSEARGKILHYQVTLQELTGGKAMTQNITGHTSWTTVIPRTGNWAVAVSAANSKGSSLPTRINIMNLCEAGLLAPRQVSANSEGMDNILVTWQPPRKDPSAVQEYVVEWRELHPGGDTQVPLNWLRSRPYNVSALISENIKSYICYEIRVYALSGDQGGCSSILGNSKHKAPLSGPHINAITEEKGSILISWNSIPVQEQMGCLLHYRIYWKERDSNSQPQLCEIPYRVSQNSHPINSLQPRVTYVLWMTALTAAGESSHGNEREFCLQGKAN
Test: BLI (Octet), P.E. VHH on immobilised biotinylated hIL-12RB2
Give Response for every item shown.

Query: Which value of Response has been reported for anti-IL-12Rβ2 VHH clone 3CRHS163 (VHH, not shown: small tags and cut ends, tested as periplasmic extract) VHH: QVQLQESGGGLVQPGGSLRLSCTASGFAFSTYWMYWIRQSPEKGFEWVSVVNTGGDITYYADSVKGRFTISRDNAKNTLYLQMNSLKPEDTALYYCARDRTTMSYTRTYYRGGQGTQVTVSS in the records?
Result: 0.339

Query: Could you do the same for anti-IL-12Rβ2 VHH clone 3CAHS142 (VHH, not shown: small tags and cut ends, tested as periplasmic extract) VHH: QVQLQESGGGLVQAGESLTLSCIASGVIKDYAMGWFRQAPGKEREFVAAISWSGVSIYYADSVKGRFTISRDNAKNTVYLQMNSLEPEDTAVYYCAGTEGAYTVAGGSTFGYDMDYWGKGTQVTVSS , please?
Result: 0.352

Query: Could you do the same for anti-IL-12Rβ2 VHH clone 3CRHS9 (VHH, not shown: small tags and cut ends, tested as periplasmic extract) VHH: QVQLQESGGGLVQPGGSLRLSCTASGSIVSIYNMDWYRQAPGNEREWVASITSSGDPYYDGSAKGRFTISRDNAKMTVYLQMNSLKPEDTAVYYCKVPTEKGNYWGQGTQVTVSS , please?
Result: 0.222

Query: Could you do the same for anti-IL-12Rβ2 VHH clone 2CRH82 (VHH, not shown: small tags and cut ends, tested as periplasmic extract) VHH: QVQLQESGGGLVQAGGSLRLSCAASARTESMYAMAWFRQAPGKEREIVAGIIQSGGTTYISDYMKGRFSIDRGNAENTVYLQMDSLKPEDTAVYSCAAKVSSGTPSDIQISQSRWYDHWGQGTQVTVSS , please?
Result: 0.426
